Target: human GPR120 (Homo sapiens)
Construct: expressed in transfected cells; host or cells: HEK293T, transient transfection with PEI
Sequence (Q5NUL3 whole entry): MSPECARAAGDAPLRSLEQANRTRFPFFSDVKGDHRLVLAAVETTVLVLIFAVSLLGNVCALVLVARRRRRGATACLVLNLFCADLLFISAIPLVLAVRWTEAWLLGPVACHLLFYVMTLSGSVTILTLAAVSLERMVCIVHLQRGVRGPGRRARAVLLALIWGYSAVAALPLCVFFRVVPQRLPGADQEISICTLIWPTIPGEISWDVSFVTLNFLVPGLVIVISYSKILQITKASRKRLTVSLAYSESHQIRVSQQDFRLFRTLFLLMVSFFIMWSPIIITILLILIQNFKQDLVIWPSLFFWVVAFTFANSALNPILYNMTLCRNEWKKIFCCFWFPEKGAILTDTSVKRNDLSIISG
Experiment: Human GPR120-β Arrestin 2 BRET agonist assay
Assay type: cell-based
Details: HEK293T cells transiently co-expressing hGPR120-eYFP and β-arrestin 2-RLuc; BRET normalised to DMSO (0%) and TUG-891 (100%); read-out: hGPR120 pEC50 (converted)
Measurement type: log10 EC50 (log10 of the value in nM)
Response schema: value (number) is log10 of EC50 in units of nM.

Record excerpt, results attached:
| Compound | System under test | Result number |
| --- | --- | --- |
| O=C(O)CCc1ccc2c(c1)CCN(c1cccc(C(F)(F)F)c1)C2 | human GPR120 (Homo sapiens) | 2.70 |
| CC(C)Oc1cc(F)cc(N2CCc3ccc(CCC(=O)O)cc3CC2)c1 | human GPR120 (Homo sapiens) | 2.60 |
| O=C(O)C1CC1c1ccc2c(c1)CCN(c1cc(OC(F)(F)F)ccc1F)C2 (stereo not drawn) | human GPR120 (Homo sapiens) | 2.00 |
| O=C(O)CCc1ccc2c(c1)CCN(c1cccc(OC(F)(F)F)c1)C2 | human GPR120 (Homo sapiens) | 2.20 |
| CO[C@H]1C[C@H](Oc2ccc(F)c(N3CCc4cc(CCC(=O)O)ccc4C3)c2)C1 | human GPR120 (Homo sapiens) | 2.20 |
| O=C(O)CCc1ccc2c(c1)CCN(c1ncc(F)c(OC3CCC3)n1)C2 | human GPR120 (Homo sapiens) | 1.80 |

Enquiry: Data request, read-out log10 EC50, for O=C(O)CCc1ccc2c(c1)CCN(c1cc(OC(F)(F)F)ccc1F)CC2
Return: 1.40

Enquiry: Item: CC(Cc1ccc2c(c1)CCN(c1cc(OC(F)(F)F)ccc1F)C2)C(=O)O (stereo not drawn)
Return: 1.90

Enquiry: Also O=C(O)CCc1ccc2c(c1)CCN(c1cccc(-c3ccccc3)c1)C2 , if possible.
Return: 2.60
